- ASSAY_SYSTEM: T1, IL-18 receptor (IL-18Rαβ) on cells (UniProt Q13478 19-541; O95256 20-599, limits assumed)
- T1 sequence (looked up) 1: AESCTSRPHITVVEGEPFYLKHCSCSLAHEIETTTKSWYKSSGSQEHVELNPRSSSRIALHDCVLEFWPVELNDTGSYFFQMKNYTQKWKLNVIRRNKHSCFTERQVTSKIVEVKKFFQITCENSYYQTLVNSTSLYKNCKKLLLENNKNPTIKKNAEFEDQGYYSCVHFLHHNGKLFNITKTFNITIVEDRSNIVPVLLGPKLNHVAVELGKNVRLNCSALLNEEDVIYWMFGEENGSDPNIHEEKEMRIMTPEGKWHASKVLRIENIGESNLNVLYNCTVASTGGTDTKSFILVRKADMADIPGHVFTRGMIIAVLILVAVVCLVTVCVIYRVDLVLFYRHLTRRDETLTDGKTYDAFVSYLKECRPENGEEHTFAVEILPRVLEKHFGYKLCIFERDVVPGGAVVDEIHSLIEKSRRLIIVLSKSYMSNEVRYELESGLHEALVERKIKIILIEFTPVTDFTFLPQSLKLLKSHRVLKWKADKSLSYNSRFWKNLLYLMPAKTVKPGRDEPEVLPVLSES
- T1 sequence (looked up) 2: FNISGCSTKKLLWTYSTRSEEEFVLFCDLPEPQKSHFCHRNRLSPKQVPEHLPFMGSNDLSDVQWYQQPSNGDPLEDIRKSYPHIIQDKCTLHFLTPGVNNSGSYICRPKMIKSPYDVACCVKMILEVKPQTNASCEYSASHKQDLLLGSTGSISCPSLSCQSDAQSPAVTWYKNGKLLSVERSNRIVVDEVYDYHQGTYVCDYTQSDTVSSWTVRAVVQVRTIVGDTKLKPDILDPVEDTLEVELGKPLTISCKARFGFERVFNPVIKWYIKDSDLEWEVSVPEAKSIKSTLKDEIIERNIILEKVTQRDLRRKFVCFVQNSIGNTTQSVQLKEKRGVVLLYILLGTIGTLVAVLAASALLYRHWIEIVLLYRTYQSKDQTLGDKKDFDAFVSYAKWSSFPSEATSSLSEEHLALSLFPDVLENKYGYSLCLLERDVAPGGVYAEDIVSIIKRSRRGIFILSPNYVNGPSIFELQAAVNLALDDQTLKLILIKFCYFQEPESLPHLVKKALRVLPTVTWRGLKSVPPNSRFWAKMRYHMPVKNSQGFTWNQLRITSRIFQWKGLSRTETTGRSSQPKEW
- ASSAY: cell-based or functional assay
Each record here notes measured EC50 (pM), HEK-Blue IL-18R reporter assay.
Write the numeric value and follow it with the unit.

For the binder IL-18 polypeptide SEQ ID NO: 34 (E06K, K53A, S55A) (ligand) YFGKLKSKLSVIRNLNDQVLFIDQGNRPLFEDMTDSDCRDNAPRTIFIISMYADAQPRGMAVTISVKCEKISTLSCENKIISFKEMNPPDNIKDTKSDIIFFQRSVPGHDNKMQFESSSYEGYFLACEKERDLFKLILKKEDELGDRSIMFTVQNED , give its reported EC50 (pM), HEK-Blue IL-18R reporter assay.
272 pM

***
For the binder C140 (SEQ ID NO: 83; N-terminal 4xG, E6K, V11I, C38A, K53A, T63A, C76A, C127A) (ligand) GGGGYFGKLKSKLSIIRNLNDQVLFIDQGNRPLFEDMTDSDARDNAPRTIFIISMYADSQPRGMAVAISVKCEKISTLSAENKIISFKEMNPPDNIKDTKSDIIFFQRSVPGHDNKMQFESSSYEGYFLAAEKERDLFKLILKKEDELGDRSIMFTVQNED , give its reported EC50 (pM), HEK-Blue IL-18R reporter assay.
2.5 pM
